assay: Toxicity against Artemia salina; assay type: organism-based; details: in vivo, read-out: LD50 (the source's name)
Answer each item with its documented LC50.
Supply the numeric figure in mM, leaving out any unit text.

Task: Name the recorded LC50 for C[C@H]1CCCCCCCCCCCCCNC1 .
Output: 2.1

Task: Next entry: C[C@H]1CCCCCCCN2C=[N+](CCC2)C1
Output: 2.2

Task: Next entry: C[C@H]1CCCCCCCN(CCCn2cc(-c3c(O)c(O)cc4ncccc34)c(-c3c(O)c(O)cc4ncccc34)c2)C1
Output: 0.9

Origin of the recorded values: ChEMBL document CHEMBL1153721
